Biological target: human MC4R (Homo sapiens, UniProt P32245)
Construct: host or cells: HEK-293 cells stably expressing the GScAMP22F split-luciferase cAMP sensor and hMC4R, G418 selection
Sequence (P32245 whole entry): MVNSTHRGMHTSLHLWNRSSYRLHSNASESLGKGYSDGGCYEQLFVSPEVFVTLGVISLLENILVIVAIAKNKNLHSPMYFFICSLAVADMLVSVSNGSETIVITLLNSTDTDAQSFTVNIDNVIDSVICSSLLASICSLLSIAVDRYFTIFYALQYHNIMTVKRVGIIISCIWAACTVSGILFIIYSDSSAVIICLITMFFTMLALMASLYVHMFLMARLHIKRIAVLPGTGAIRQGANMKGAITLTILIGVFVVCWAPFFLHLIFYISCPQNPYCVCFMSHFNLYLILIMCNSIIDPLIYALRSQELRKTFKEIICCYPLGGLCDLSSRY
Test: split-luciferase cAMP sensor assay, agonist mode (measurement window 1), hMC4R
Type: cell-based
Positions of bridges follow the written chain, without caps; N, C: chain ends. Non-standard residues stand in square brackets, D forms with d. Residues, ends and D or L forms follow the SMILES beside them. dPhe(4-Br) = N[C@H](Cc1ccc(Br)cc1)C(=O)O; Nle = CCCC[C@H](N)C(=O)O
Value type: MC4R selectivity vs MC1R

INSERT INTO results (molecule, result_value) VALUES
  ('CCCC[C@H](NC(=O)[C@H](CCCNC(=N)N)NC(C)=O)C(=O)N[C@H]1CSSC[C@@H](C(N)=O)NC(=O)[C@@H](Cc2c[nH]c3ccccc23)NC(=O)[C@H](CCCNC(=N)N)NC(=O)[C@@H](Cc2ccc(Br)cc2)NC(=O)[C@H](CCCNC(=N)N)NC1=O [CTX-1613] (Ac-R[Nle]CR[dPhe(4-Br)]R[dW]C-NH2; disulfide 3-8 (inferred))', 0.79),
  ('CC(=O)N[C@@H](CCCNC(=N)N)C(=O)N[C@H]1CSSC[C@@H](C(=O)N[C@@H](CCCNC(=N)N)C(=O)N[C@@H](Cc2ccccc2)C(N)=O)NC(=O)[C@@H](Cc2c[nH]c3ccccc23)NC(=O)[C@H](CCCNC(=N)N)NC(=O)[C@@H](Cc2ccc(Br)cc2)NC(=O)[C@H](CCCNC(=N)N)NC(=O)[C@@H](C)NC1=O [CTX-1220] (Ac-RC[dA]R[dPhe(4-Br)]R[dW]CRF-NH2; disulfide 2-8 (inferred))', 1.53),
  ('CC(=O)N[C@@H](CCCNC(=N)N)C(=O)N[C@H]1CSSC[C@@H](C(N)=O)NC(=O)[C@H](Cc2c[nH]c3ccccc23)NC(=O)[C@H](CCCNC(=N)N)NC(=O)[C@@H](Cc2c[nH]c3ccccc23)NC(=O)[C@H](CCCNC(=N)N)NC(=O)[C@@H](C)NC1=O [CTX-1274] (Ac-RC[dA]R[dW]RWC-NH2; disulfide 2-8)', 0.19);

* * *

# MC4R selectivity vs MC3R values compiled below
Molecular target: human MC4R (Homo sapiens, UniProt P32245)
Construct: host or cells: HEK-293 cells stably expressing the GScAMP22F split-luciferase cAMP sensor and hMC4R, G418 selection
Experiment: split-luciferase cAMP sensor assay, agonist mode (measurement window 1), hMC4R
Assay type: cell-based
Experimental: The stable cell lines were grown and maintained in selection media consisting of Dulbecco's modified Eagle media (DMEM) with 4.5 g/l D-glucose, and 4 mM L-glutamine (Thermo Fisher Scientific, Waltham, MA), supplemented with 10% fetal bovine serum, 100 units/ml penicillin, 100 μg/ml streptomycin, 2.5 μg/ml amphotericin B, 200 μg/ml hygromycin B (for positive selection of the GScAMP22f luciferase reporter), and Geneticin™ (G418) 700 μg/ml (for MC3R or MC4R selection). […]
Positions of bridges follow the written chain, without caps; N, C: chain ends. Non-standard residues stand in square brackets, D forms with d. Residues, ends and D or L forms follow the SMILES beside them. dPhe(4-tBu) = CC(C)(C)c1ccc(C[C@@H](N)C(=O)O)cc1; dPhe(4-Br) = N[C@H](Cc1ccc(Br)cc1)C(=O)O; d(αMeF) = C[C@@](N)(Cc1ccccc1)C(=O)O; d(hPhe) = N[C@H](CCc1ccccc1)C(=O)O
Value type: MC4R selectivity vs MC3R

INSERT INTO results (compound, result_value) VALUES
  ('CC(=O)N[C@@H](CCCNC(=N)N)C(=O)N[C@H]1CSSC[C@@H](C(N)=O)NC(=O)[C@@H](Cc2c[nH]c3ccccc23)NC(=O)[C@H](CCCNC(=N)N)NC(=O)[C@@H](Cc2ccc(C(C)(C)C)cc2)NC(=O)[C@H](CCCNC(=N)N)NC(=O)[C@@H](C)NC1=O [CTX-1242] (Ac-RC[dA]R[dPhe(4-tBu)]R[dW]C-NH2; disulfide 2-8 (inferred))', 0.08),
  ('CC(=O)N[C@@H](CCCNC(=N)N)C(=O)N[C@H]1CSSC[C@@H](C(N)=O)NC(=O)[C@H](Cc2c[nH]c3ccccc23)NC(=O)[C@H](CCCNC(=N)N)NC(=O)[C@@H](Cc2ccc(Br)cc2)NC(=O)[C@H](CCCNC(=N)N)NC(=O)[C@@H](C)NC1=O [CTX-2205] (Ac-RC[dA]R[dPhe(4-Br)]RWC-NH2; disulfide 2-8)', 2.12),
  ('CC(=O)N[C@@H](CCCNC(=N)N)C(=O)N[C@H]1CSSC[C@@H](C(N)=O)NC(=O)[C@@H](Cc2c[nH]c3ccccc23)NC(=O)[C@H](CCCNC(=N)N)NC(=O)[C@@](C)(Cc2ccccc2)NC(=O)[C@H](CCCNC(=N)N)NC(=O)[C@@H](C)NC1=O [CTX-1240] (Ac-RC[dA]R[d(αMeF)]R[dW]C-NH2; disulfide 2-8)', 0.41),
  ('CC(=O)N[C@@H](CCCNC(=N)N)C(=O)N[C@H]1CSSC[C@@H](C(N)=O)NC(=O)[C@@H](Cc2c[nH]c3ccccc23)NC(=O)[C@H](CCCNC(=N)N)NC(=O)[C@@H](CCc2ccccc2)NC(=O)[C@H](CCCNC(=N)N)NC(=O)[C@@H](C)NC1=O [CTX-1277] (Ac-RC[dA]R[d(hPhe)]R[dW]C-NH2; disulfide 2-8 (inferred))', 0.1);
